Please respond with reported IC50 for every item in the list.
# study-system: T1, HA-GCN4 hAPRIL (amino acid residues 105-250) (human, UniProt O75888 105-250)
# T1 construct: Bought (R&D Systems); also called HA-tagged GCN4 human APRIL; HA-GCN4-huAPRIL; not shown: N-terminal HA tag; GCN4 isoleucine zipper oligomerization domain
# T1 sequence: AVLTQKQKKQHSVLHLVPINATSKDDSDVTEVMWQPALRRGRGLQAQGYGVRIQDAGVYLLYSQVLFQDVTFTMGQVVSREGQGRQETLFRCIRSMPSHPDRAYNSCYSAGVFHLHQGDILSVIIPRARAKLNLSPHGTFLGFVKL
# assay: blocking ELISA, 4-parameter fit; blocked: human APRIL binding to human BCMA-Fc
# Method: Recombinant TACI-Fc or BCMA-Fc was coated on 96 well plates in 0.1 M carbonate-bicarbonate buffer (pH 9.6), overnight at 4° C. […] HA-tagged APRIL binding to either receptor was quantified using a goat polyclonal anti-HA tag-HRP antibody (Abcam) added at a 1:10000 dilution followed by colorimetric development using 100 μl/well of freshly prepared TMB substrate (KPL) carried out for up to 30 minutes at room temperature before quenching enzymatic reaction by the addition of 1N sulfuric acid. […]
Answers are plain numbers, in nM.

Worked examples follow.
monoclonal antibody 2922 (antibody, mouse IgG2, V domains shown) VH: QVQLHQSGPELVKPGASVKLSCKTSGYTFTSYDVFWVKQRPGQGLEWIGWIYPRDSSTKYNEKFKGKATLTVDTSSSTAYMELHSLTSEDSAVYFCAKEGYDYDKRGFDYWGQGTTLTVSS VL: DIVLTQSPASLAVSLGQRAIISCKASQSVSFAGTNLMHWYQQRPGQQPKLLIYRASNLEPGVPTRFSGSGSRTDFTLNIHPVEEDDAATYYCQQSREYPWTFGGGTKLEIK :: 22
monoclonal antibody 3525 (antibody, mouse IgG2, V domains shown) VH: QVQLQQSGAELVRPGASVKLSCKASGYTFTDHEMHWVRQTPVHGLEWIGVIDPDTGDTTYNQKFKGKATLTADKSSSTAYMDLRSLTSEDSAVFYCTRWTGGDYWGHGTTLTVSS VL: DVVMTQTPLSLSVTIGQPASISCKSSQSLLYSNGKTYLNWFQQRPGQSPKRLMYQVSKLDPGIPDRFSGSGSETDFTLKISRVEAEDLGLYYCLQGTYYPYTFGGGTKLEIK :: 0.85
monoclonal antibody 2218 (antibody, mouse IgG2, V domains shown) VH: DVQLQESGPGLVKPSQSLSLTCSVTGYSITSGYYWNWIRQFPGNKLEWMGYISYDGYNNYNPSLKNRISITRDTSKNQFFLKLNSVTTEDTATYYCANYYDYEDWYFGVWGTGTTVTVSS VL: DIVLTQSPASLAMSLGKRATISCRASESVSIIGTNSIHWYQQKPGQPPKLLIYHASNLETGVPARFSGSGSRTDFTLTIDPVEEDDVAIYYCLQSRKIPYTFGGGTKLEIK :: 0.22

Attention now turns to another entry.
Query string: What does the data say about its IC50? Entry: monoclonal antibody 3530 (antibody, mouse IgG2, V domains shown) VH: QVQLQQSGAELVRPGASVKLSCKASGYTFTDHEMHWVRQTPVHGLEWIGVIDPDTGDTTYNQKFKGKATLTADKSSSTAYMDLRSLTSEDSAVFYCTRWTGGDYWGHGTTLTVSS VL: DAVMTQTPLSLSVTIGQPASISCKSSQSLLYSDGKTYLNWFQQRPGQSPKRLMYQVSKLDPGIPDRFSGSGSETDFTLKISRVEAEDLGVYYCLQGTYYPYTFGSGTKLEIK
Result string: 0.68
